Test system: EMC-BAC-2
Assay: relative viability (nuclei count vs DMSO), 5 days (fraction); higher = more cells survive
Conditions: first compound 1 µM
Flag rule - relative viability less than 0.6 flags 1; the remaining entries get -1.

1. O=c1cc(N2CCOCC2)oc2c(-c3cccc4c3sc3ccccc34)cccc12 + COc1cc2c(Oc3ccc(NC(=O)C4(C(=O)Nc5ccc(F)cc5)CC4)cc3F)ccnc2cc1OCCCN1CCOCC1 [Foretinib] (partner 0.25 µM); -1
2. O=c1cc(N2CCOCC2)oc2c(-c3cccc4c3sc3ccccc34)cccc12 + Cc1nc(Nc2ncc(C(=O)Nc3c(C)cccc3Cl)s2)cc(N2CCN(CCO)CC2)n1 [Dasatinib] (partner 0.075 µM); 1
3. CCN(CC)CCCCNc1ncc2cc(-c3cc(OC)cc(OC)c3)c(NC(=O)NC(C)(C)C)nc2n1 + O=C(c1cc(Cc2n[nH]c(=O)c3ccccc23)ccc1F)N1CCN(C(=O)C2CC2)CC1 [Olaparib] (partner 8 µM); 1
4. CCN(CC)CCCCNc1ncc2cc(-c3cc(OC)cc(OC)c3)c(NC(=O)NC(C)(C)C)nc2n1 + Cc1nc(Nc2ncc(C(=O)Nc3c(C)cccc3Cl)s2)cc(N2CCN(CCO)CC2)n1 [Dasatinib] (partner 0.075 µM); 1
5. CCN(CC)CCCCNc1ncc2cc(-c3cc(OC)cc(OC)c3)c(NC(=O)NC(C)(C)C)nc2n1 + CS(=O)(=O)CCNCc1ccc(-c2ccc3ncnc(Nc4ccc(OCc5cccc(F)c5)c(Cl)c4)c3c2)o1 [Lapatinib] (partner 2 µM); -1
6. O=c1cc(N2CCOCC2)oc2c(-c3cccc4c3sc3ccccc34)cccc12 + Nc1nc2[nH]cc(CCc3ccc(C(=O)N[C@@H](CCC(=O)O)C(=O)O)cc3)c2c(=O)[nH]1 [Pemetrexed] (partner 0.2 µM); 1
7. O=c1cc(N2CCOCC2)oc2c(-c3cccc4c3sc3ccccc34)cccc12 + N=C(N)NC(=N)NCCc1ccccc1 [Phenformin] (partner 250 µM); 1
8. O=c1cc(N2CCOCC2)oc2c(-c3cccc4c3sc3ccccc34)cccc12 + COc1cccc2cc(-c3nc([C@H]4CC[C@H](C(=O)O)CC4)n4ncnc(N)c34)[nH]c12 [OSI-027] (partner 0.5 µM); 1
9. CCN(CC)CCCCNc1ncc2cc(-c3cc(OC)cc(OC)c3)c(NC(=O)NC(C)(C)C)nc2n1 + COc1cc2c(Oc3ccc(NC(=O)C4(C(=O)Nc5ccc(F)cc5)CC4)cc3F)ccnc2cc1OCCCN1CCOCC1 [Foretinib] (partner 0.25 µM); -1
10. O=c1cc(N2CCOCC2)oc2c(-c3cccc4c3sc3ccccc34)cccc12 + Cc1cc(Nc2cc(N3CCN(C)CC3)nc(Sc3ccc(NC(=O)C4CC4)cc3)n2)n[nH]1 [Tozasertib] (partner 0.1 µM); 1
11. O=c1cc(N2CCOCC2)oc2c(-c3cccc4c3sc3ccccc34)cccc12 + C[C@]1(O)C[C@@H](c2nc(-c3ccc4ccc(-c5ccccc5)nc4c3)c3c(N)nccn32)C1 [Linsitinib] (partner 1 µM); -1
12. O=c1cc(N2CCOCC2)oc2c(-c3cccc4c3sc3ccccc34)cccc12 + NC(=O)Nc1cc(-c2cccc(F)c2)sc1C(=O)N[C@H]1CCCNC1 [AZD7762] (partner 0.2 µM); -1
13. O=c1cc(N2CCOCC2)oc2c(-c3cccc4c3sc3ccccc34)cccc12 + CC(=O)c1c(C)c2cnc(Nc3ccc(N4CCNCC4)cn3)nc2n(C2CCCC2)c1=O [Palbociclib] (partner 0.5 µM); 1
14. O=c1cc(N2CCOCC2)oc2c(-c3cccc4c3sc3ccccc34)cccc12 + O=C(CCCCCCC(=O)Nc1ccccc1)NO [Vorinostat] (partner 1 µM); 1
